test: Plasma pharmacokinetics, single dose and steady state; type: in vivo, human; settings: human, plasma, oral, 150 mg, plasma, 150 mg QD, Day 8 (n=3); read-out: Cmax, mean (%CV)
valueType: Cmax (ng/mL)

[
  {
    "molecule": "CC(=O)c1c(C)c2cnc(Nc3ccc(N4CCNCC4)cn3)nc2n(C2CCCC2)c1=O [PD 0332991]",
    "endpointValue": 194
  }
]

* * *

Assay: Plasma pharmacokinetics, single dose and steady state
Type: in vivo, human
Conditions: human, plasma, oral, 150 mg, plasma, 150 mg QD, Day 1 (n=4); read-out: Cmax, mean (%CV)
Description: Samples for measurement of PK parameters were collected from all patients pre-dose and at intervals up to 10 h post-dose following a single administration (cycle one, day 1) and after repeated dosing (cycle 1, day 8). […] Additional PK parameters assessed were the time-to-first occurrence of Cmax (Tmax), the apparent volume of distribution during the terminal phase (Vz/F), the terminal elimination half-life (t1/2) and the drug accumulation ratio (Rac). […]

[
  {
    "entrySmiles": "CC(=O)c1c(C)c2cnc(Nc3ccc(N4CCNCC4)cn3)nc2n(C2CCCC2)c1=O",
    "valueUnits": "ng/mL",
    "Cmax": 78
  }
]

All values here come from paper PMC3111206.
